# test protocol: Plasma pharmacokinetics following a single intravenous and subcutaneous injection of a combination of formoterol and budesonide
# test settings: male, Gottingen, minipig, in vivo, Plasma concentration of formoterol, SC1 0.4 μg/kg, combination, male 1-0771, 0.333 hr
property name: concentration at 0.333 hr

> print(dat)
                                   compound  measured.result
1  COc1ccc(CC(C)NCC(O)c2ccc(O)c(NC=O)c2)cc1 (stereo not shown) [Formoterol, formoterol]      0.121 ng/mL

###

# test protocol: in vivo
# test settings: female, Gottingen, minipig, in vivo, iv, 4 ug/kg
property name: Vd (L/kg)

> print(dat)
                                   molecule  measured.result
1  OCc1cc(C(O)CNCCCCCCOCCCCc2ccccc2)ccc1O (racemic)             22.1
